# Condition: in methanol, 293.15 K

{"Query Smiles": "O=C(O)c1cc(O)c(O)c(O)c1", "solubility (mole fraction)": 0.0639}

* * *

# Condition: in water, 293.15 K

{"Query Smiles": "O=C(O)c1cc(O)c(O)c(O)c1", "solubility (mole fraction)": 0.00101}

* * *

# Condition: in methanol, 313.15 K
Property: solubility (mole fraction)

{"Query Smiles": "O=C(O)c1cc(O)c(O)c(O)c1", "Property": "solubility (mole fraction)", "Test Result": 0.0755}

* * *

# Condition: in water, 313.15 K

{"Query Smiles": "O=C(O)c1cc(O)c(O)c(O)c1", "solubility (mole fraction)": 0.00289}
